Tested on: C. albicans (ATCC 10231)
Assay: In vitro antifungal CFU assay
Format: cell-based, Candida albicans
Conditions: peptide 0.064 mg/mL + ZnCl2 (0.9:1), 3 h, pH 5.4; per 0.1 mL
Residues, ends and D or L forms follow the SMILES beside them.
Each entry below carries its reported mean CFU number ± S.D..
Numeric answer only, unit CFU assumed.

CC[C@H](C)[C@H](NC(=O)[C@H](C)NC(=O)[C@@H](N)C(C)C)C(=O)N[C@@H](C)C(=O)N[C@@H](CC(C)C)C(=O)N[C@@H](CCCCN)C(=O)N[C@@H](C)C(=O)N[C@@H](C)C(=O)N[C@@H](Cc1c[nH]cn1)C(=O)N[C@@H](Cc1ccc(O)cc1)C(=O)N[C@@H](Cc1c[nH]cn1)C(=O)N[C@H](C(=O)N[C@@H](Cc1c[nH]cn1)C(=O)N[C@@H](CCCCN)C(=O)N[C@@H](CCC(=O)O)C(=O)O)[C@@H](C)O [WT, VAIALKAAHYHTHKE, reference compound] (H-VAIALKAAHYHTHKE-OH) ... 48.3
CC[C@H](C)[C@H](NC(=O)[C@H](C)NC(=O)[C@@H](N)C(C)C)C(=O)N[C@@H](C)C(=O)N[C@@H](CC(C)C)C(=O)N[C@@H](CCCCN)C(=O)N[C@@H](C)C(=O)N[C@@H](C)C(=O)N[C@@H](Cc1c[nH]cn1)C(=O)N[C@@H](Cc1ccc(O)cc1)C(=O)N[C@@H](Cc1c[nH]cn1)C(=O)N[C@H](C(=O)N[C@@H](Cc1c[nH]cn1)C(=O)N[C@@H](CCCCN)C(=O)N[C@@H](CCC(=O)O)C(N)=O)[C@@H](C)O [L3, VAIALKAAHYHTHKE-NH2] (H-VAIALKAAHYHTHKE-NH2) ... 148

Continue with the compound presented below.
Entry CC[C@H](C)[C@H](NC(=O)[C@H](C)NC(=O)[C@@H](NC(C)=O)C(C)C)C(=O)N[C@@H](C)C(=O)N[C@@H](CC(C)C)C(=O)N[C@@H](CCCCN)C(=O)N[C@@H](C)C(=O)N[C@@H](C)C(=O)N[C@@H](Cc1c[nH]cn1)C(=O)N[C@@H](Cc1ccc(O)cc1)C(=O)N[C@@H](Cc1c[nH]cn1)C(=O)N[C@H](C(=O)N[C@@H](Cc1c[nH]cn1)C(=O)N[C@@H](CCCCN)C(=O)N[C@@H](CCC(=O)O)C(N)=O)[C@@H](C)O [L2, Ac-VAIALKAAHYHTHKE-NH2] (Ac-VAIALKAAHYHTHKE-NH2) : reported mean CFU number ± S.D. = ? 79

* * *

System: C. albicans (ATCC 10231)
Assay: In vitro antifungal CFU assay
Assay type: cell-based, Candida albicans
Settings: peptide 0.128 mg/mL + ZnCl2 (0.9:1), 3 h, pH 5.4; per 0.1 mL
Residues, ends and D or L forms follow the SMILES beside them.
measured-metric: mean CFU number ± S.D. (CFU)
Numeric answer only, unit CFU assumed.

Entry CC[C@H](C)[C@H](NC(=O)[C@H](C)NC(=O)[C@@H](N)C(C)C)C(=O)N[C@@H](C)C(=O)N[C@@H](CC(C)C)C(=O)N[C@@H](CCCCN)C(=O)N[C@@H](C)C(=O)N[C@@H](C)C(=O)N[C@@H](Cc1c[nH]cn1)C(=O)N[C@@H](Cc1ccc(O)cc1)C(=O)N[C@@H](Cc1c[nH]cn1)C(=O)N[C@H](C(=O)N[C@@H](Cc1c[nH]cn1)C(=O)N[C@@H](CCCCN)C(=O)N[C@@H](CCC(=O)O)C(=O)O)[C@@H](C)O [WT, VAIALKAAHYHTHKE, reference compound] (H-VAIALKAAHYHTHKE-OH) : reported mean CFU number ± S.D. = ? 42.7

* * *

Test system: E. coli (ATCC 25922)
Test: In vitro anti-E. coli CFU assay
Type: cell-based, Escherichia coli
Conditions: peptide 0.032 mg/mL + CuCl2 (0.9:1), 24 h, pH 5.4
Residues, ends and D or L forms follow the SMILES beside them.
measured-metric: CFU decrease/increase with respect to untreated controls
# output: numeric value plus its unit

Entry CC[C@H](C)[C@H](NC(=O)[C@H](C)NC(=O)[C@@H](N)C(C)C)C(=O)N[C@@H](C)C(=O)N[C@@H](CC(C)C)C(=O)N[C@@H](CCCCN)C(=O)N[C@@H](C)C(=O)N[C@@H](C)C(=O)N[C@@H](Cc1c[nH]cn1)C(=O)N[C@@H](Cc1ccc(O)cc1)C(=O)N[C@@H](Cc1c[nH]cn1)C(=O)N[C@H](C(=O)N[C@@H](Cc1c[nH]cn1)C(=O)N[C@@H](CCCCN)C(=O)N[C@@H](CCC(=O)O)C(=O)O)[C@@H](C)O [WT, VAIALKAAHYHTHKE, reference compound] (H-VAIALKAAHYHTHKE-OH) : reported CFU decrease/increase with respect to untreated controls = ? -21%

* * *

Settings: T = 298 K, I = 0.1 M (KCl); charges omitted
Residues, ends and D or L forms follow the SMILES beside them.
measured-metric: logβ [CuHL]

CC[C@H](C)[C@H](NC(=O)[C@H](C)NC(=O)[C@@H](NC(C)=O)C(C)C)C(=O)N[C@@H](C)C(=O)N[C@@H](CC(C)C)C(=O)N[C@@H](CCCCN)C(=O)N[C@@H](C)C(=O)N[C@@H](C)C(=O)N[C@@H](Cc1c[nH]cn1)C(=O)N[C@@H](Cc1ccc(O)cc1)C(=O)N[C@@H](Cc1c[nH]cn1)C(=O)N[C@H](C(=O)N[C@@H](Cc1c[nH]cn1)C(=O)N[C@@H](CCCCN)C(=O)N[C@@H](CCC(=O)O)C(N)=O)[C@@H](C)O [L2, Ac-VAIALKAAHYHTHKE-NH2] (Ac-VAIALKAAHYHTHKE-NH2) ... 17.57(5)
CC[C@H](C)[C@H](NC(=O)[C@H](C)NC(=O)[C@@H](N)C(C)C)C(=O)N[C@@H](C)C(=O)N[C@@H](CC(C)C)C(=O)N[C@@H](CCCCN)C(=O)N[C@@H](C)C(=O)N[C@@H](C)C(=O)N[C@@H](Cc1c[nH]cn1)C(=O)N[C@@H](Cc1ccc(O)cc1)C(=O)N[C@@H](Cc1c[nH]cn1)C(=O)N[C@H](C(=O)N[C@@H](Cc1c[nH]cn1)C(=O)N[C@@H](CCCCN)C(=O)N[C@@H](CCC(=O)O)C(=O)O)[C@@H](C)O [WT, VAIALKAAHYHTHKE, reference compound] (H-VAIALKAAHYHTHKE-OH) ... 26.20(4)
CC[C@H](C)[C@H](NC(=O)[C@H](C)NC(=O)[C@@H](NC(C)=O)C(C)C)C(=O)N[C@@H](C)C(=O)N[C@@H](CC(C)C)C(=O)N[C@@H](CCCCN)C(=O)N[C@@H](C)C(=O)N[C@@H](C)C(=O)N[C@@H](Cc1c[nH]cn1)C(=O)N[C@@H](Cc1ccc(O)cc1)C(=O)N[C@@H](Cc1c[nH]cn1)C(=O)N[C@H](C(=O)N[C@@H](Cc1c[nH]cn1)C(=O)N[C@@H](CCCCN)C(=O)N[C@@H](CCC(=O)O)C(=O)O)[C@@H](C)O [L1, Ac-VAIALKAAHYHTHKE] (Ac-VAIALKAAHYHTHKE-OH) ... 13.81(2)

Continue with the compound presented below.
Entry CC[C@H](C)[C@H](NC(=O)[C@H](C)NC(=O)[C@@H](N)C(C)C)C(=O)N[C@@H](C)C(=O)N[C@@H](CC(C)C)C(=O)N[C@@H](CCCCN)C(=O)N[C@@H](C)C(=O)N[C@@H](C)C(=O)N[C@@H](Cc1c[nH]cn1)C(=O)N[C@@H](Cc1ccc(O)cc1)C(=O)N[C@@H](Cc1c[nH]cn1)C(=O)N[C@H](C(=O)N[C@@H](Cc1c[nH]cn1)C(=O)N[C@@H](CCCCN)C(=O)N[C@@H](CCC(=O)O)C(N)=O)[C@@H](C)O [L3, VAIALKAAHYHTHKE-NH2] (H-VAIALKAAHYHTHKE-NH2) : reported logβ [CuHL] = ? 25.36(3)

* * *

Each entry below carries its reported logβ [CuL].
Settings: T = 298 K, I = 0.1 M (KCl); charges omitted
Residues, ends and D or L forms follow the SMILES beside them.

Sample answers from the record:
CC[C@H](C)[C@H](NC(=O)[C@H](C)NC(=O)[C@@H](NC(C)=O)C(C)C)C(=O)N[C@@H](C)C(=O)N[C@@H](CC(C)C)C(=O)N[C@@H](CCCCN)C(=O)N[C@@H](C)C(=O)N[C@@H](C)C(=O)N[C@@H](Cc1c[nH]cn1)C(=O)N[C@@H](Cc1ccc(O)cc1)C(=O)N[C@@H](Cc1c[nH]cn1)C(=O)N[C@H](C(=O)N[C@@H](Cc1c[nH]cn1)C(=O)N[C@@H](CCCCN)C(=O)N[C@@H](CCC(=O)O)C(=O)O)[C@@H](C)O [L1, Ac-VAIALKAAHYHTHKE] (Ac-VAIALKAAHYHTHKE-OH) ... 8.43(2)
CC[C@H](C)[C@H](NC(=O)[C@H](C)NC(=O)[C@@H](N)C(C)C)C(=O)N[C@@H](C)C(=O)N[C@@H](CC(C)C)C(=O)N[C@@H](CCCCN)C(=O)N[C@@H](C)C(=O)N[C@@H](C)C(=O)N[C@@H](Cc1c[nH]cn1)C(=O)N[C@@H](Cc1ccc(O)cc1)C(=O)N[C@@H](Cc1c[nH]cn1)C(=O)N[C@H](C(=O)N[C@@H](Cc1c[nH]cn1)C(=O)N[C@@H](CCCCN)C(=O)N[C@@H](CCC(=O)O)C(N)=O)[C@@H](C)O [L3, VAIALKAAHYHTHKE-NH2] (H-VAIALKAAHYHTHKE-NH2) ... 15.83(5)

Continue with the compound presented below.
Entry CC[C@H](C)[C@H](NC(=O)[C@H](C)NC(=O)[C@@H](NC(C)=O)C(C)C)C(=O)N[C@@H](C)C(=O)N[C@@H](CC(C)C)C(=O)N[C@@H](CCCCN)C(=O)N[C@@H](C)C(=O)N[C@@H](C)C(=O)N[C@@H](Cc1c[nH]cn1)C(=O)N[C@@H](Cc1ccc(O)cc1)C(=O)N[C@@H](Cc1c[nH]cn1)C(=O)N[C@H](C(=O)N[C@@H](Cc1c[nH]cn1)C(=O)N[C@@H](CCCCN)C(=O)N[C@@H](CCC(=O)O)C(N)=O)[C@@H](C)O [L2, Ac-VAIALKAAHYHTHKE-NH2] (Ac-VAIALKAAHYHTHKE-NH2) : reported logβ [CuL] = ? 11.27(7)
